Origin of the recorded values: patent US7829576B2

- Study Target: CYP2D6 (Homo sapiens, UniProt P10635)
- Construct: purchased BD Bioscience
- Sequence (P10635 whole entry): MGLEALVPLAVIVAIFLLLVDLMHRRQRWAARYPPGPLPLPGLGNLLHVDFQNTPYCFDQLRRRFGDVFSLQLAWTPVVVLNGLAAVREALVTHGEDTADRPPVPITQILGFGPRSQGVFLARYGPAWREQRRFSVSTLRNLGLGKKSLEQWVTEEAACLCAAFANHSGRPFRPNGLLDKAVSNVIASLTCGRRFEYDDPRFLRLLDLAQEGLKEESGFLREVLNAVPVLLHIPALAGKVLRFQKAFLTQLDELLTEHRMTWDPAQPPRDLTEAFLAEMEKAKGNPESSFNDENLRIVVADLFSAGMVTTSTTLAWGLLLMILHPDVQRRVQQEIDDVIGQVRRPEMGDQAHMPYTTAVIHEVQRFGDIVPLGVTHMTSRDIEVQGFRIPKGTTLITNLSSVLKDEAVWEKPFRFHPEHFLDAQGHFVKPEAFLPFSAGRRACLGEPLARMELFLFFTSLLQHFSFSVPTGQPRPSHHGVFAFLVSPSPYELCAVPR
- Measurement Protocol: CYP2D6 inhibition screening, recombinant enzyme, MAMC substrate
- Type: in vitro ADME
- Details: human, probe 7-methoxy-4-(aminomethyl)-coumarin (MAMC)
Assay Readout: inhibition at 10 µM (%)
Give your result in % as a bare value.

Quick check: inhibition at 10 µM of Cc1cccc2c1Oc1ccccc1C1(O)CCN(C)CC21 (racemic) [beloxepin] ? 97
